assay: Selectivity ratio of IC50 for MAO-B in mitochondria-enriched Sprague-Dawley rat liver fractions to IC50 for recombinant human MAO-B
# Ratio IC50 listing for each entry below
Number only, please.

O=C(CCCc1ccccc1)Nc1nc2cc(Cl)ccc2c(=O)s1 | 1.4
O=C(CCCc1ccccc1)Nc1nc2ccccc2c(=O)s1 | 1.4
O=C(/C=C/c1cccc(Cl)c1)Nc1nc2ccccc2c(=O)s1 | 1.4
CN(C(=O)CCCc1ccccc1)c1nc2ccccc2c(=O)s1 | 1.4
O=C(CCCc1cccc(Cl)c1)Nc1nc2ccccc2c(=O)s1 | 1.4
O=C(CCCc1ccccc1)Nc1nc2sccc2c(=O)s1 | 1.4
COc1cccc(C#CC(=O)Nc2nc3ccccc3c(=O)s2)c1 | 1.4
O=C(CCc1ccccc1)Nc1nc2ccccc2c(=O)s1 | 1.4
O=C(C/C=C/c1ccccc1)Nc1nc2ccccc2c(=O)s1 | 1.4
O=C(COc1cccc(Cl)c1)Nc1nc2ccccc2c(=O)s1 | 400

Ratio IC50 recorded for this molecule, O=C(CCCc1ccccc1)Nc1nc2ccc(Br)cc2c(=O)s1 , is 1.4

Ratio IC50 recorded for this molecule, O=C(CCc1ccccc1F)Nc1nc2ccccc2c(=O)s1 , is 65

###

# Ki listing for each entry below
molecular target: Adenosine receptor A2b (Homo sapiens, UniProt P29275); experiment: Displacement of [3H]PSB-603 from human recombinant adenosine A2B receptor expressed in CHO cells after 75 mins by liquid scintillation counting analysis
Sequence (P29275 whole entry): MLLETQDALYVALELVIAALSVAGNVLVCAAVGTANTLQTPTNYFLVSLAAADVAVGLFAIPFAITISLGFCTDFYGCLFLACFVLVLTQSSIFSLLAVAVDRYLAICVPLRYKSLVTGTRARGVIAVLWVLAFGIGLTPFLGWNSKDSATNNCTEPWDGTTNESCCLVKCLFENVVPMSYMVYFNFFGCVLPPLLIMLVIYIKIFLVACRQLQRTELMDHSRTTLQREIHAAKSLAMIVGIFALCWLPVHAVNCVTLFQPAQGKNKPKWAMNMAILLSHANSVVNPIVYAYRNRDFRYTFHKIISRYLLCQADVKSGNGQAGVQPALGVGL
Give the value in nM but do not write nM after it.

Known Ki results, listed for orientation:
O=C(CCc1ccccc1F)Nc1nc2ccccc2c(=O)s1 | 801
COc1cccc(CCCC(=O)Nc2nc3ccccc3c(=O)s2)c1 | 302

Ki recorded for this compound, O=C(CCCc1ccccc1)Nc1nc2ccsc2c(=O)s1 , is 547

###

target: UniProt:P0DMS8; assay: Displacement of [3H]PSB-11 from human recombinant adenosine A3 receptor expressed in CHO cells after 60 mins by liquid scintillation counting analysis; format: cell-based
Sequence (P0DMS8 whole entry): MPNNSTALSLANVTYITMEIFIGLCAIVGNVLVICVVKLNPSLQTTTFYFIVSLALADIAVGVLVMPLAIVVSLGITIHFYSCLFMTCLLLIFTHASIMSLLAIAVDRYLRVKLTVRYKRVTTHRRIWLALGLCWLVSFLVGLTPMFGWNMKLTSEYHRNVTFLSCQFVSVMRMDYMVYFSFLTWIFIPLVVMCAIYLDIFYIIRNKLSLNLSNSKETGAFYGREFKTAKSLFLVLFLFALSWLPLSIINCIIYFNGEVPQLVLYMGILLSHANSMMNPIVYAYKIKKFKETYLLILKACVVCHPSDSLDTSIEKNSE
pKi: −log10 of the molar value.
# pKi listing for each entry below

COc1cccc(/C=C/CC(=O)Nc2nc3ccccc3c(=O)s2)c1 | 6.94
O=C(CCCc1cccc(Cl)c1)Nc1nc2ccccc2c(=O)s1 | < 6.00
Cc1ccc2nc(NC(=O)CCCc3ccccc3)sc(=O)c2c1 | 6.83
O=C(COc1cccc(Cl)c1)Nc1nc2ccccc2c(=O)s1 | < 6.00

Param item: O=C(C/C=C/c1ccc(Cl)c(Cl)c1)Nc1nc2ccccc2c(=O)s1 ; param system: UniProt:P0DMS8; output pKi: < 6.00

Param item: COc1cccc(CCCC(=O)Nc2nc3ccccc3c(=O)s2)c1 ; param system: UniProt:P0DMS8; output pKi: 6.42

###

species on record: Homo sapiens; experiment: Selectivity ratio of Ki for human recombinant adenosine A2B receptor to Ki for human recombinant adenosine A2A receptor
parameterMeasured: Ratio Ki
Number only, please.

Ratio Ki recorded for this compound, O=C(CCc1ccccc1)Nc1nc2ccccc2c(=O)s1 , is 5

###

target: Adenosine receptor A1 (Homo sapiens, UniProt P30542); test: Displacement of [3H]CCPA from human recombinant adenosine A1 receptor expressed in CHO cells after 90 mins by liquid scintillation counting analysis; assay type: cell-based
Sequence (P30542 whole entry): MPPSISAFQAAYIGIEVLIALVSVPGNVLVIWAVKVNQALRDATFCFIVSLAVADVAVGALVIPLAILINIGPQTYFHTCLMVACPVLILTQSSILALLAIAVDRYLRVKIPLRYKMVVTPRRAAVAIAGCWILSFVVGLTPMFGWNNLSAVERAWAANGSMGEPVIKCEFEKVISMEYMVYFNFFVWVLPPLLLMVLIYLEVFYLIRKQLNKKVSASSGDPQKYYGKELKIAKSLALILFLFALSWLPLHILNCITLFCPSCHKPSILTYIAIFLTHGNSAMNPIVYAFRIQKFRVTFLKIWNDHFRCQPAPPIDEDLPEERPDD
parameterMeasured: pKi
Quick note: pKi values are minus log10 of concentrations in mol/L.

pKi recorded for this compound, COCCOc1ccc(N2CCN(CCn3ncc4c3nc(N)n3nc(-c5ccco5)nc43)CC2)cc1 [PRELADENANT] , is 6.53

pKi recorded for this compound, COc1cccc(/C=C/CC(=O)Nc2nc3ccccc3c(=O)s2)c1 , is 6.30

pKi recorded for this compound, COc1cccc(CCC(=O)Nc2nc3ccccc3c(=O)s2)c1 , is 5.86

pKi recorded for this compound, O=C(CCCc1ccccc1)Nc1nc2sccc2c(=O)s1 , is 6.44

pKi recorded for this compound, O=C(C/C=C/c1ccccc1)Nc1nc2ccccc2c(=O)s1 , is 6.09

pKi recorded for this compound, COc1cccc(CCCC(=O)Nc2nc3ccccc3c(=O)s2)c1 , is 6.67

pKi recorded for this compound, O=C(CCc1ccccc1)Nc1nc2ccccc2c(=O)s1 , is 5.98

Origin of values: ChEMBL document CHEMBL2380255
